# tested-system: T1, Human NKp46 His tag (Acro Biosystems, NC1-H52H4) (human, UniProt O76036 22-255)
# T1 construct: bought; also called human NKp46-his tagged protein
# T1 sequence (O76036 22-255 limits assumed): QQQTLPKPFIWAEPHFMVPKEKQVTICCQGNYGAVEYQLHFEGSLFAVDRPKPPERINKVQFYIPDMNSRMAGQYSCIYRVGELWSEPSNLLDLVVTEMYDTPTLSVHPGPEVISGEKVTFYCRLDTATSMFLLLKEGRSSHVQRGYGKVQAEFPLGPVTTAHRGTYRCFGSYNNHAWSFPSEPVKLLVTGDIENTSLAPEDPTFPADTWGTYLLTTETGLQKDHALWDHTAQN
# experimental-details: FP competition vs BCY15035
Numbered stars: 1 amine (or outer) side, 2 acyl side, 3 side chain; on linkers, the order of the positions; unused ones are H or OH. Bridge positions count the residues as written; N and C are the ends. Square brackets hold non-standard residues; d marks the D form. Ends that are not written are not given here. TATA = O=C(CC[*:1])N1CN(C(=O)CC[*:2])CN(C(=O)CC[*:3])C1; Phe(4-CONH2) = NC(=O)c1ccc(C[C@H](N)C(=O)O)cc1; Ala(cPent) = N[C@@H](CC1CCCC1)C(=O)O; Cba = N[C@@H](CC1CCC1)C(=O)O
Assign pKi to each entry below.
// scale note: pKi = -log10(conc_M); give the bare number

pKi for Ac-CY[Cba]PDYLC[dA]DEYC-NH2 (linker 1-8-13 via TATA, scaffold TATA) [BCY16133] ?
8.00

pKi for ACYLPD[Phe(4-CONH2)]LCGDEYCA-NH2 (linker 2-9-14 via TATA; N-terminus assumed; SMILES CC(C)C[C@@H]1NC(=O)[C@H](Cc2ccc(C(N)=O)cc2)NC(=O)[C@H](CC(=O)O)NC(=O)[C@@H]2CCCN2C(=O)[C@H](CC(C)C)NC(=O)[C@H](Cc2ccc(O)cc2)NC(=O)[C@@H](NC(=O)[C@H](C)N)CSCCC(=O)N2CN3CN(C2)C(=O)CCSC[C@@H](C(=O)N[C@@H](C)C(N)=O)NC(=O)[C@H](Cc2ccc(O)cc2)NC(=O)[C@H](CCC(=O)O)NC(=O)[C@H](CC(=O)O)NC(=O)CNC(=O)[C@H](CSCCC3=O)NC1=O, scaffold TATA) [BCY16140] ?
6.91

pKi for ACY[Cba]PDYLCGDEYCA-NH2 (linker 2-9-14 via TATA; N-terminus assumed; SMILES CC(C)C[C@@H]1NC(=O)[C@H](Cc2ccc(O)cc2)NC(=O)[C@H](CC(=O)O)NC(=O)[C@@H]2CCCN2C(=O)[C@H](CC2CCC2)NC(=O)[C@H](Cc2ccc(O)cc2)NC(=O)[C@@H](NC(=O)[C@H](C)N)CSCCC(=O)N2CN3CN(C2)C(=O)CCSC[C@@H](C(=O)N[C@@H](C)C(N)=O)NC(=O)[C@H](Cc2ccc(O)cc2)NC(=O)[C@H](CCC(=O)O)NC(=O)[C@H](CC(=O)O)NC(=O)CNC(=O)[C@H](CSCCC3=O)NC1=O, scaffold TATA) [BCY15639] ?
7.77

pKi for ACY[Ala(cPent)]PDYLCGDEYCA-NH2 (linker 2-9-14 via TATA, scaffold TATA) [BCY16130] ?
6.49

pKi for ACALPDYLCGDEYCA-NH2 (linker 2-9-14 via TATA; also: cyclised with TATA, TATB or TBMT, scaffold TATA) [BCY15653] ?
6.39

pKi for ACYLPDWLCGDEYCA-NH2 (linker 2-9-14 via TATA; also: scaffold TATA, TATB or TBMT, scaffold TATA) [BCY14455] ?
6.55
